- systemUnderTest: NB7+Caspase-8
- testMethodNotes: compound enhancement of TRAIL-induced cell killing – NB7 cells plus caspase-8, luminescence, panel, dose response (AID 652002)
- experimentalParameters: NB7 neuroblastoma +caspase-8, TRAIL sensitization, luminescence viability, with TRAIL, run 2, single replicate panel EC50
experimentalReadout: EC50

See these solved cases before continuing.
compound	EC50
CN(C)CCCN(C(=O)c1ccc(C(=O)c2ccccc2)cc1)c1nc2ccc(F)cc2s1	> 12.5 µM
Cc1nc2cc(NC(=O)Nc3cccc([N+](=O)[O-])c3)ccc2n1C	6.56 µM
CC1(C)N=C(N)N=C(N)N1c1ccc(Oc2ccc(Cl)cc2)c(Cl)c1	0.948 µM

Provide each entry's EC50 from the list below.
1. CC1(C)N=C(N)N=C(N)N1c1ccc(CCCCc2ccccc2)cc1
2. O=C(Oc1c(CN2CCOCC2)cc(Cl)c2cccnc12)c1cccs1
3. O=C(ONC1=NCCCCC1)c1ccc(Cl)cc1
4. O/C(=C\c1ccc2ccccc2n1)c1ccc(O)cc1O
5. O=C(Nc1ccc2[nH]ccc2c1)c1cccs1

(A)
["< 0.391 µM", "6.75 µM", "> 12.5 µM", "7.58 µM", "5.19 µM"]

Provide each entry's EC50 from the list below.
1. CC(=O)c1ccc(NC(=O)Nc2cccnc2)cc1
2. CCC(C)c1ccc(O)c(NC(=S)NC(=O)c2cccs2)c1 (stereo not given)
3. CC(C)C[C@H](NC(=O)c1nc[nH]c1C(=O)N[C@@H](CCCCNC(=O)OC(C)(C)C)C(=O)OC(C)(C)C)C(=O)OCc1ccccc1
4. CC(C)Cc1nc2oc3c(Cl)ncnc3c2c2c1CCCC2

(A)
1. 9.72 µM
2. 7.09 µM
3. > 12.5 µM
4. > 12.5 µM

Provide each entry's EC50 from the list below.
1. CN1C[C@@H]2[C@@H]3C(=O)N(Cc4ccccc4)C(=O)[C@@H]3[C@](Cc3ccccc3)(C1=O)N2C(=O)c1ccc(C(C)(C)C)cc1
2. CCOC(=O)c1sc(NC(=O)c2cc(-c3ccccc3C)nc3ccccc23)c(C#N)c1C
3. Cc1onc(-c2c(Cl)cccc2Cl)c1C(=O)ONC(=O)c1ccccc1

(A)
["> 12.5 µM", "> 12.5 µM", "> 12.5 µM"]
